# Test system: panel of cancer cell lines
# Test method notes: Cell viability (CellTiter-Glo) dose-response across cancer cell line panel;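 further: after 72 h compound incubation with CellTiter-Glo ATP readout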
# Type: cell-based, human
# Cond: Homo sapiens, NCI-H2110, NCI-H2110 cells
Readout: EC50 (µM)
The response must be a number in µM with no trailing unit.

Q: // query EC50 value for entry COCc1ccccc1NCc1ccc([C@@H]2[C@H](O)CCCc3cncn32)c(-c2ccccc2Cl)c1
Ans: 11.8

----------
# Test system: panel of cancer cell lines
# Test method notes: Cell viability (CellTiter-Glo) dose-response across cancer cell line panel;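 further: after 72 h compound incubation with CellTiter-Glo ATP readout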
# Type: cell-based, human
# Cond: Homo sapiens, ZR-75-30, ZR-75-30
Readout: pEC50
Convention used: pEC50 is expressed as -log10 of the molar concentration.

Q: Lab request: please report pEC50 under test system panel of cancer cell lines for CC(C)C[C@H](NC(=O)[C@H](Cc1ccccc1)NC(=O)c1cnccn1)B(O)O [Bortezomib]
Ans: 7.99

----------
# Tested on: panel of cancer cell lines
# Test method notes: Cell viability (CellTiter-Glo) dose-response across cancer cell line panel;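 further: after 72 h compound incubation with CellTiter-Glo ATP readout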
# Assay type: cell-based, human
# Cond: Homo sapiens, CAS-1
# Protocol: Next, we explored the effect of CSN5 inhibition on the viability of cancer cells. […] A standardized CellTiter-Glo Assay (Promega #G7570) based on the quantification of ATP was applied according to the manufacturer's protocol to measure the amount of viable cells in culture. […] EC50 values were calculated from the plot of percentage of inhibition versus inhibitor concentration using the nonlinear regression analysis software Origin 7.5SR6 (OriginLab Corp.).
Known EC50 of a selection of compounds
The response must be a number in nM with no trailing unit.

See these solved cases before continuing.
| Item smiles | Target or test system | EC50 / nM |
| --- | --- | --- |
| NS(=O)(=O)OC[C@@H]1C[C@@H](n2ccc3c(N[C@H]4CCc5ccccc54)ncnc32)C[C@@H]1O | panel of cancer cell lines | 14000 |
| COCc1ccccc1NCc1ccc([C@H]2[C@@H](O)CCCc3cncn32)c(-c2ccccc2Cl)c1 | panel of cancer cell lines | 705 |

Next:
Q: Lab request: please report EC50 under test system panel of cancer cell lines for CC(C)C[C@H](NC(=O)[C@H](Cc1ccccc1)NC(=O)c1cnccn1)B(O)O
Ans: 16.6

----------
# System: panel of cancer cell lines
# Test method notes: Cell viability (CellTiter-Glo) dose-response across cancer cell line panel;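 further: after 72 h compound incubation with CellTiter-Glo ATP readout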
# Assay type: cell-based, human
# Cond: Homo sapiens, RKN cells
Readout: EC50 (µM)
The response must be a number in µM with no trailing unit.

Q: // query EC50 value for entry COCc1ccccc1NCc1ccc([C@@H]2[C@H](O)CCCc3cncn32)c(-c2ccccc2Cl)c1 [CSN5i-2e]
Ans: 28.9

----------
# Target or test system: human ADAM17 (Homo sapiens)
# Sequence (P78536 18-670): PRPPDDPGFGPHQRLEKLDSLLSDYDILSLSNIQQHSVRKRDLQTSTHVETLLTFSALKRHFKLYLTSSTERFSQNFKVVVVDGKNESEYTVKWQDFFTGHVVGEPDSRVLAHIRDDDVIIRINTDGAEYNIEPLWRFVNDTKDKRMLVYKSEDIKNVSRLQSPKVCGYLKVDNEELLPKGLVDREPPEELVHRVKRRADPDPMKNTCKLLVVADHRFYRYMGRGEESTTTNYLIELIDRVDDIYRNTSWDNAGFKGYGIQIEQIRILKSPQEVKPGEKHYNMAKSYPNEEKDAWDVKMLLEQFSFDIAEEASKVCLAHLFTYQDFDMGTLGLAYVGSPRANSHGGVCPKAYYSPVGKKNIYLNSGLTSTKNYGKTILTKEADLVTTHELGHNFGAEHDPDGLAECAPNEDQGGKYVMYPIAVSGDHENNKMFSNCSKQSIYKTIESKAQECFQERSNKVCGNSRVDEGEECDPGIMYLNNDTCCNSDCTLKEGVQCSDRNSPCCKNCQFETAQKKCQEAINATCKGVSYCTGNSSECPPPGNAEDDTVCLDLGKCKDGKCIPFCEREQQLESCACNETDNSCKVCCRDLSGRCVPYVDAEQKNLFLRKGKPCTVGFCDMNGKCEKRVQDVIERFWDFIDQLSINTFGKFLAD
pIC50: −log10 of the molar value.
Readout: pIC50

See these solved cases before continuing.
| Molecule | pIC50 |
| --- | --- |
| N#Cc1ccc(C2C(O)CCCc3cncn32)c(-c2ccccc2Cl)c1 (stereo not drawn) [CSN5i-1b] | < 4.00 |
| CC(C)n1nc(C(F)F)cc1C(=O)Nc1ccc([C@H]2[C@@H](O)CCCc3cncn32)c(-c2ccccc2)c1 [CSN5i-3] | < 4.00 |

Next:
Q: Lab request: please report pIC50 under test system human ADAM17 (Homo sapiens) for COCc1ccccc1NCc1ccc([C@@H]2[C@H](O)CCCc3cncn32)c(-c2ccccc2Cl)c1 [CSN5i-2e]
Ans: < 4.00
